// data source = patent US6376510B1

# Test system: anesthetized rats (evoked responses of anterior tibial muscle)
# protocol notes: In vivo neuromuscular block and cardiovascular side effects, anesthetized rat (Example 8, Table 3)
# recorded conditions: rat, in vivo
Entries annotated with measured ΔH (change in heart rate)
recorded metric: ΔH (change in heart rate) (%)

- compound: "CC(=O)Oc1ccc(C[N+]2(C)C3CCCC2CC(OC(=O)CCCCCCC(=O)OC2CC4CCCC(C2)[N+]4(C)Cc2ccc(OC(C)=O)c(OC(C)=O)c2)C3)cc1OC(C)=O.[Br-].[Br-] (centres unmarked)"
  assayed system: "anesthetized rats (evoked responses of anterior tibial muscle)"
  recorded number: 0
- compound: "CCC(=O)Oc1ccc(C[N+]2(C)C3CCCC2CC(OC(=O)CCCCC(=O)OC2CC4CCCC(C2)[N+]4(C)Cc2ccc(OC(=O)CC)c(OC(=O)CC)c2)C3)cc1OC(=O)CC.[Br-].[Br-] (centres unmarked)"
  assayed system: "anesthetized rats (evoked responses of anterior tibial muscle)"
  recorded number: 0
- compound: "CC(=O)Oc1ccc(C[N+]2(C)C3CCCC2CC(OC(=O)CCCCCC(=O)OC2CC4CCCC(C2)[N+]4(C)Cc2ccc(OC(C)=O)c(OC(C)=O)c2)C3)cc1OC(C)=O.[Br-].[Br-] (centres unmarked)"
  assayed system: "anesthetized rats (evoked responses of anterior tibial muscle)"
  recorded number: 0
- compound: "CC(=O)Oc1ccc(C[N+]2(C)C3CCCC2CC(OC(=O)CCCCC(=O)OC2CC4CCCC(C2)[N+]4(C)Cc2ccc(OC(C)=O)c(OC(C)=O)c2)C3)cc1OC(C)=O.[Br-].[Br-] (centres unmarked)"
  assayed system: "anesthetized rats (evoked responses of anterior tibial muscle)"
  recorded number: 0
- compound: "CCC(=O)Oc1ccc(C[N+]2(C)C3CCCC2CC(OC(=O)CCCC(=O)OC2CC4CCCC(C2)[N+]4(C)Cc2ccc(OC(=O)CC)c(OC(=O)CC)c2)C3)cc1OC(=O)CC.[Br-].[Br-] (centres unmarked)"
  assayed system: "anesthetized rats (evoked responses of anterior tibial muscle)"
  recorded number: 0
